- protocolDetails: amyloid nucleation score (Sup35N fusion, yeast selection) (log enrichment); library NNK2; higher = more nucleation; inactive = no reads after selection;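 note: zero at mode of non-aggregating sequences after 7 days selection at 30°C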

{"columns": ["inputSequence", "amyloid nucleation score"],
 "data": [
  ["VYRMPGVSWKYVS", 0.501],
  ["PNSLYGYKIAFSLDFFVRVY", "inactive"],
  ["SSFFLTQSKSFGYA", "inactive"]
]}

---

- protocolDetails: amyloid nucleation score (Sup35N fusion, yeast selection) (log enrichment); library NNK3; higher = more nucleation; inactive = no reads after selection

{"columns": ["substance", "amyloid nucleation score"],
 "data": [
  ["WFFLGFVLIIKWLGLHQYSF", "inactive"],
  ["NWSYRDGREPHYI", 1.15],
  ["YASVRVGMPSCDECGMFCLE", "inactive"],
  ["MIVSQVCTRSHVMGRSLGAE", "inactive"],
  ["AHEQTQSDLPGVELPRWDR", "inactive"],
  ["SKESTNSVRCVFITVSPTRR", 0.976],
  ["LHVSTRFA", "inactive"],
  ["PSYFVI", "inactive"],
  ["PVWVKYIDYCPSRKHLSCRV", "inactive"],
  ["TPYVTGTTEAVKMQHRCNVD", -0.188],
  ["MVCNGFRDDRVMIVK", "inactive"],
  ["SEIRGNRNMTTEAPT", "inactive"],
  ["FFSDTYSNTSPM", "inactive"],
  ["LGVWRGIGPWRWAKKRWRVA", "inactive"],
  ["GDSGPDKKWHFTKY", "inactive"],
  ["LRCYDILLDA", "inactive"],
  ["EPKLDNV", "inactive"],
  ["MDSFRRDEYFKSLFVMLYLS", "inactive"],
  ["IRLCLLSIMWLNGWLSAIHA", "inactive"],
  ["TNLACWVTFCPNCMMLDYLG", 2.21],
  ["PSVHCMWCPRQPDVFPRWIV", "inactive"],
  ["RSSKSEGYGFVGVGI", "inactive"],
  ["YKNIFSWSPNSWTYKCSVNN", "inactive"],
  ["IARATFFINQR", 1.43],
  ["KRFMDLTHIESSRAKVYRVT", "inactive"],
  ["LRGCLKSVIDTSLG", "inactive"]
]}

---

- protocolDetails: amyloid nucleation score (Sup35N fusion, yeast selection) (log enrichment); library NNK2; higher = more nucleation; inactive = no reads after selection

{"columns": ["substance", "amyloid nucleation score"],
 "data": [
  ["FMLSVPNVDRFVRRMLGTPE", 1.05],
  ["MGSNAWVLNNACHGLFTSAS", 0.386],
  ["PWTRWGVSFAFKAVNKCVHV", -1],
  ["GVLNAVHCQVYWL", 7.87],
  ["FFTIVMRRSILFCIFLVIDA", -1.6],
  ["GIHGIIITRV", 3.22],
  ["LNLLADNTLYGDSSYVGYLR", 0.021],
  ["GDHRFMSVVYVFYQSLNGVV", 3.41],
  ["CNDGMTTSDYWWCSARLDPY", 0.345],
  ["VCRPRTTNIGAWRRFRFLFW", -0.601],
  ["YAHRTSTA", 0.342],
  ["HHVEGMGYFLS", 0.175],
  ["RDVVSLGLQEGNSRMRHTGG", 0.82],
  ["LVQLMMMFWKRGLRDSANMV", -1.13],
  ["RQVANWAVVIGNPMVMNPEG", -0.295],
  ["CWNACSLRLNDGAGDPGWRD", 0.36],
  ["SVFMIYKTVSGGHAYFVVQQ", 4.97],
  ["VKPVSVFL", -0.11],
  ["YWWCRPILILCSNLDDVWSL", 7.6],
  ["NCNRYRMRTKFRRSYMGSVR", 0.157],
  ["ILYYLGWVASALEGHYLDES", -0.853],
  ["IVLNVYMRKTKQV", 0.078],
  ["HFCYYMCFEWLDTIVAYYLG", -0.337],
  ["IGSRVVYISRVLLKNWTLVT", -0.592],
  ["NAIRFLVMLVGTWF", 0.25],
  ["DMRTIGEHCW", 1.02],
  ["LIVKCSYLSWQAGIWAGFGY", 2.9],
  ["NYTWSNTRLNYPLRVNATNH", -1.01],
  ["NFFNFSDMYRYGNKIWGGAN", 0.208],
  ["VDGVSLSGEFFNTIVNNFCI", 6.08],
  ["QNAMGTSVDYNVNFVYVGNL", 3.38],
  ["KYMRLSLEDYNC", 0.533],
  ["LSHLISVVRRVRKYSYGEVV", 0.389],
  ["TDYYAMWFHSIGRFSG", -1.33],
  ["FEIWWLVGVVFWMVSGVNTV", -0.074],
  ["LPGLIGS", 1.96],
  ["VLEGIYLLMKVCLIYPRSYD", -1.8],
  ["KAVCGCLLLGFVNFLYPVEV", -0.495],
  ["GCSWEITDVHGGRLKLAMDP", 1.12],
  ["SRACVLWKGLRRAANTC", 0.984],
  ["DALLNFTRLSITNNVNIGP", 5.89],
  ["LKVISTCLRWQHASLPCQ", 0.822],
  ["VDRESRFWWEGVQGFLDYWV", -0.614],
  ["CSTVLRGCVLGQYLYGYSSG", -0.258]
]}

src = the supplement of paper PMC12042874
